# target-system: BTK T474I (Homo sapiens (Human), UniProt Q06187, T474I)
# Sequence (Q06187 whole entry T474I): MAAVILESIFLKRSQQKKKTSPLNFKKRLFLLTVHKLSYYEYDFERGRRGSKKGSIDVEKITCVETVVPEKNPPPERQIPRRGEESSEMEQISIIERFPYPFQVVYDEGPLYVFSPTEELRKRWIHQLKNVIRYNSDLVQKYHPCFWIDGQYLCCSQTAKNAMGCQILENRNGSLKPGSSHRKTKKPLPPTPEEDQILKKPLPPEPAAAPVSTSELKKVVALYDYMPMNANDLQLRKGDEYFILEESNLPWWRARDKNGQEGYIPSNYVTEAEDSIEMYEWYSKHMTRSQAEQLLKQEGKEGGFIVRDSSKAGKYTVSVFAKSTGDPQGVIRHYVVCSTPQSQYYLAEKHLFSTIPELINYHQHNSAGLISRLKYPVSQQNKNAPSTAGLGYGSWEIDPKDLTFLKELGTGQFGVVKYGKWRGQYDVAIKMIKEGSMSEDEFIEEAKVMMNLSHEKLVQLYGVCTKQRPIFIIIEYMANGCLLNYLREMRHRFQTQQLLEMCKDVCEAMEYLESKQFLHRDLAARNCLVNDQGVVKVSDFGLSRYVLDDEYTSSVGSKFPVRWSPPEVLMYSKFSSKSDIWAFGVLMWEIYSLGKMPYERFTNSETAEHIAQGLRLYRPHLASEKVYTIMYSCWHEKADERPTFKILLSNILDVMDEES
# assay-summary: Binding kinetics measurements (Surface Plasmon Resonance) on BTK T474I
# conditions-used: target residence time, SPR
endpoint: Tau (h) BTK T474I (Act)
API: value field is a number in h; no unit string.

Exam item: Entry Nc1ncc2n3c(nc(-c4ccc(C(=O)Nc5cc(OC(F)F)ccn5)cc4)c13)[C@@H]1CC[C@H](C1)NC(=O)CCOCC/C=C/2 has what Tau (h) BTK T474I (Act)?
Marked response: 1.60

Exam item: What do you get for Nc1ncc2c3c1c(-c1ccc(C(=O)Nc4cc(C(F)(F)F)ccn4)cc1)nn3[C@@H]1CCC[C@H](C1)NC(=O)CCCOC/C=C/2 ?
Marked response: 2.55

Exam item: What do you get for N#Cc1ccnc(NC(=O)c2ccc(-c3nn4c5c(cnc(N)c35)/C=C/CCN3CC[C@H]3C(=O)N[C@@H]3CC[C@@H]4C3)cc2)c1 ?
Marked response: 0.93

Exam item: What do you get for N#Cc1ccnc(NC(=O)c2ccc(-c3nc4n5c(cnc(N)c35)/C=C/CCOCCC(=O)N[C@@H]3CCC[C@@H]4C3)cc2)c1 ?
Marked response: 1.15
